tested on: Pseudomonas aeruginosa; assay: Antibacterial activity against Pseudomonas aeruginosa at 0.5 mg/ml incubated for 18 hrs by well plate technique; format: functional; details: read-out: DIZ
Please respond with reported zone of inhibition at 500 µg/mL for every item in the list.
Numbers only, in mm.

// for each molecule in input: emit zone of inhibition at 500 µg/mL
1. Cc1ccc(-c2nn3c(-c4nc5ccccc5[nH]4)c(-c4ccc(F)cc4)nc3s2)cc1
2. Cc1nn2c(-c3nc4cc(Cl)ccc4[nH]3)c(-c3ccc(F)cc3)nc2s1
3. Cc1ccc(-c2nn3c(-c4nc5cc(Cl)ccc5[nH]4)c(-c4ccc(Cl)cc4)nc3s2)cc1
4. Cc1nn2c(-c3nc4ccccc4[nH]3)c(-c3ccc(Cl)cc3)nc2s1
5. Cc1ccc(-c2nc3sc(-c4ccc(Cl)cc4)nn3c2-c2nc3ccccc3[nH]2)cc1
6. Cc1ccc(-c2nn3c(-c4nc5cc([N+](=O)[O-])ccc5[nH]4)c(-c4ccc(F)cc4)nc3s2)cc1

[reply]
[10, 10, 2, 3, 1, 2]

Recorded values, source ChEMBL document CHEMBL3414425.
